molecular target: Human Cav 2.2 channels (Homo sapiens); test: Fluorescent assay for CaV2.2 channels using potassium depolarization (VIPR/FLIPR); assay type: cell-based; settings: FLIPR data; closed state; read-out: CAv2.2 IC50 Closed
RECORDED_METRIC: IC50 (µM)

Cn1nc(C(F)(F)F)cc1NC(=O)[C@H]1C[C@H](C(C)(C)S(=O)(=O)c2cccc(C(F)(F)F)c2)C1
4.98
CC(C)([C@H]1C[C@H](NS(=O)(=O)c2ccc(C(F)(F)F)cc2Cl)C1)S(=O)(=O)c1cc(F)cc(C(F)(F)F)c1
3.37
O=C(NC[C@H]1C[C@H](S(=O)(=O)c2cccc(OC(F)(F)F)c2)C1)c1ccc(Cl)cn1
1.77
CC(C)(C[C@H]1C[C@H](NC(=O)c2ccc(C(F)(F)F)cn2)C1)S(=O)(=O)c1cccc(C(F)(F)F)c1
1.21
CC(C)([C@H]1C[C@@H](NC(=O)c2ccc(C(F)(F)F)cn2)C1)S(=O)(=O)c1cccc(C(F)(F)F)c1
3.21
CC(C)([C@H]1C[C@@H](CNc2ccnc(C(F)(F)F)n2)C1)S(=O)(=O)c1cccc(C(F)(F)F)c1
4.03
CC(C)([C@H]1C[C@@H](NS(=O)(=O)c2ccc(C(F)(F)F)cc2Cl)C1)S(=O)(=O)c1cccc(C(F)(F)F)c1
10

====

target: T-type calcium channel (Homo sapiens, UniProt O43497); assay: T-type channel blocking, FLIPR data (Table 6); details: CAv3.1
Sequence (O43497 whole entry): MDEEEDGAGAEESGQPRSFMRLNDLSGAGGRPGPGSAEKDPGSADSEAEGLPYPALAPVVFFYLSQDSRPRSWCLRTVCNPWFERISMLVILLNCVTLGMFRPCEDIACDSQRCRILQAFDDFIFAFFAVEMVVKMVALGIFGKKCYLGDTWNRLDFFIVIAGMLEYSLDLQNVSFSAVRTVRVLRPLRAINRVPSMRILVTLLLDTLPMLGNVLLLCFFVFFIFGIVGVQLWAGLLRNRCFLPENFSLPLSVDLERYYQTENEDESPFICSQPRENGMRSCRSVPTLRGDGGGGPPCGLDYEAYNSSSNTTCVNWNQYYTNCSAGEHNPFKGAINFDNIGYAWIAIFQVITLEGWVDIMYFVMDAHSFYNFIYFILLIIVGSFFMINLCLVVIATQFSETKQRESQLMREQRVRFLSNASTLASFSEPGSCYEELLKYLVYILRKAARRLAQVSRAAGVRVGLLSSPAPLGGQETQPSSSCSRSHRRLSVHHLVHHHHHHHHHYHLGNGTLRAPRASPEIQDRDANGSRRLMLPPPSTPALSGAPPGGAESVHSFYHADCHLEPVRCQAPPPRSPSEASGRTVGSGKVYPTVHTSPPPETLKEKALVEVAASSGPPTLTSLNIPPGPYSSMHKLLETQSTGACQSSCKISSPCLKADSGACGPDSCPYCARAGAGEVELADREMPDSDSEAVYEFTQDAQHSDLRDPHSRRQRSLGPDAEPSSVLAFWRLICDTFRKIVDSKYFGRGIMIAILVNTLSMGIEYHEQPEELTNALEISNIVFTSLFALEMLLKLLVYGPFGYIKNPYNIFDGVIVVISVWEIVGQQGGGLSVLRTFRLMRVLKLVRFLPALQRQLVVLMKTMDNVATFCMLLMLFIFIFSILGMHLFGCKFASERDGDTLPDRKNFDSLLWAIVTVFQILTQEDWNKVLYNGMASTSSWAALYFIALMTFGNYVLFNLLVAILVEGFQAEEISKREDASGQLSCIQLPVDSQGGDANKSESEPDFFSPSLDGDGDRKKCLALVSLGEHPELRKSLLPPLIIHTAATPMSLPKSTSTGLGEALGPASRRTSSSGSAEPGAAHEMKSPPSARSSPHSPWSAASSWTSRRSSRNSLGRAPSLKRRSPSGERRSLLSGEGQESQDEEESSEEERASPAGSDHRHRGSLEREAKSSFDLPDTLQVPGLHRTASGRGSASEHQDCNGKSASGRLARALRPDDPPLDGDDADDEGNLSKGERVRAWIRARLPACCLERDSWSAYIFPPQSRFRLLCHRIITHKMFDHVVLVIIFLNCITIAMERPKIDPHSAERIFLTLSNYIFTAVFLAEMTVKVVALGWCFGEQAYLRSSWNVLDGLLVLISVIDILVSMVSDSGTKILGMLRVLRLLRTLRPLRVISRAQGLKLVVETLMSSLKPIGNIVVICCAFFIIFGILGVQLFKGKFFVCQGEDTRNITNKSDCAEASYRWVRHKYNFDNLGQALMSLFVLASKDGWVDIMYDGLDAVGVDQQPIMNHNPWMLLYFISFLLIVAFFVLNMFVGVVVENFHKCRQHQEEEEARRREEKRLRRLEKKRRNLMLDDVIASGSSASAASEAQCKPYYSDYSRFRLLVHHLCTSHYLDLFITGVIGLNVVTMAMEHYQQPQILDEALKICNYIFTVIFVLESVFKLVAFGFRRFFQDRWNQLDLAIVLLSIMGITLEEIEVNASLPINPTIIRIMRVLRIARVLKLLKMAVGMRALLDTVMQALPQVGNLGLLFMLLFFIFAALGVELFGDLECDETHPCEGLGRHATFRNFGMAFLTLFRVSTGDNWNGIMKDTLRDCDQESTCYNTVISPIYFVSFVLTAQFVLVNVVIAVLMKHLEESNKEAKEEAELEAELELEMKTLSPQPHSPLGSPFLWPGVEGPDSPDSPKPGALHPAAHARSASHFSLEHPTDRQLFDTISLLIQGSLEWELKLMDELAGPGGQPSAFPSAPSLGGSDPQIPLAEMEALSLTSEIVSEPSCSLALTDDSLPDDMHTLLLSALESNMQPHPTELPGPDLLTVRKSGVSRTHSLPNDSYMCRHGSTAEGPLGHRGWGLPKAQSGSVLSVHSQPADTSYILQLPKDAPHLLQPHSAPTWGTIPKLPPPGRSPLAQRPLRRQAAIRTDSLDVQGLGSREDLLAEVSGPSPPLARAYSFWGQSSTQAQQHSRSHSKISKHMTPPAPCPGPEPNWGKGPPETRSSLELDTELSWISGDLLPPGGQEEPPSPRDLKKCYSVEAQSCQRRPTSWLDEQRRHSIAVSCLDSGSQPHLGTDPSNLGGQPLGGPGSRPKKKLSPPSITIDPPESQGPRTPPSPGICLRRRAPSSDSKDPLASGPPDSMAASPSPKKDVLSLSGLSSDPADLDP
Output Yes for records whose IC50 is lower than 6 µM, No for records at or above 6 µM.

CC(C)([C@H]1C[C@H](NC(=O)c2ncc(C(F)(F)F)cc2S(C)(=O)=O)C1)S(=O)(=O)c1cccc(OC(F)(F)F)c1
No
CC(C)([C@H]1C[C@@H](NC(=O)c2ccc(Cl)cc2S(C)(=O)=O)C1)S(=O)(=O)c1cccc(C(F)(F)F)c1
No
CC(C)([C@H]1C[C@@H](NC(=O)c2ccnc(C(F)(F)F)n2)C1)S(=O)(=O)c1cccc(OC(F)(F)F)c1
Yes
Cn1nc(C(F)(F)F)cc1C(=O)N[C@H]1C[C@H](CC(C)(C)S(=O)(=O)c2cccc(C(F)(F)F)c2)C1
Yes
CS(=O)(=O)c1cc(Cl)ccc1C(=O)NC[C@H]1C[C@H](S(=O)(=O)c2cccc(OC(F)(F)F)c2)C1
No
CC(C)(C[C@H]1C[C@H](NC(=O)c2ccc(OCC(F)(F)F)nc2)C1)S(=O)(=O)c1cccc(C(F)(F)F)c1
Yes
CC(C)([C@H]1C[C@H](C(=O)Nc2ccc(Cl)cn2)C1)S(=O)(=O)c1cccc(C(F)(F)F)c1
Yes
CC(C)S(=O)(=O)c1cc(C(F)(F)F)cnc1C(=O)NC[C@H]1C[C@@H](C(C)(C)S(=O)(=O)c2cccc(C(F)(F)F)c2)C1
Yes
NC1(CC(=O)N2CC(CS(=O)(=O)c3cc(F)cc(C(F)(F)F)c3)C2)CCCCC1
No
CC(C)([C@H]1C[C@H](C(=O)Nc2ccc(C(F)(F)F)cc2Cl)C1)S(=O)(=O)c1cccc(C(F)(F)F)c1
No
CC(C)([C@H]1C[C@H](NC(=O)c2cncc(C(F)(F)F)c2)C1)S(=O)(=O)c1cccc(C(F)(F)F)c1
No
CC(C)([C@H]1C[C@H](NC(=O)c2ccc(C(F)(F)F)cc2S(C)(=O)=O)C1)S(=O)(=O)c1cccc(OC(F)(F)F)c1
No
O=C(NC[C@H]1C[C@H](S(=O)(=O)c2cc(F)cc(C(F)(F)F)c2)C1)c1cnc(C(F)(F)F)nc1
No

====

target: Human Cav 2.2 channels (Homo sapiens); assay: Fluorescent assay for CaV2.2 channels using potassium depolarization (VIPR/FLIPR); type: cell-based; details: FLIPR data; ratio closed/inactivated IC50
List of CAv2.2 IC50 Ratio closed/inact. values.
RECORDED_METRIC: CAv2.2 IC50 Ratio closed/inact.

CC(C)(C[C@H]1C[C@@H](NC(=O)c2ccc(C(F)(F)F)cn2)C1)S(=O)(=O)c1cccc(C(F)(F)F)c1
9.9
CC(C)(C[C@H]1C[C@H](NC(=O)c2ccc(OCC(F)(F)F)nc2)C1)S(=O)(=O)c1cccc(C(F)(F)F)c1
10.9
CC(C)([C@H]1C[C@H](NS(=O)(=O)c2ccc(C(F)(F)F)cc2)C1)S(=O)(=O)c1cc(F)cc(C(F)(F)F)c1
6.2
CC(C)([C@H]1C[C@@H](NS(=O)(=O)c2ccc(F)c(Cl)c2)C1)S(=O)(=O)c1cccc(C(F)(F)F)c1
9.2
CC(C)(C[C@H]1C[C@@H](NC(=O)c2ncc(C(F)(F)F)cc2S(C)(=O)=O)C1)S(=O)(=O)c1cccc(C(F)(F)F)c1
19.8
O=C(NC[C@H]1C[C@H](S(=O)(=O)c2cc(F)cc(C(F)(F)F)c2)C1)c1cnc(C(F)(F)F)nc1
4

====

molecular target: T-type calcium channel (Homo sapiens, UniProt O95180); assay: T-type channel blocking, FLIPR data (Table 6); assay type: cell-based; conditions: CAv3.2, ratio closed/inactivated IC50
Sequence (O95180 whole entry): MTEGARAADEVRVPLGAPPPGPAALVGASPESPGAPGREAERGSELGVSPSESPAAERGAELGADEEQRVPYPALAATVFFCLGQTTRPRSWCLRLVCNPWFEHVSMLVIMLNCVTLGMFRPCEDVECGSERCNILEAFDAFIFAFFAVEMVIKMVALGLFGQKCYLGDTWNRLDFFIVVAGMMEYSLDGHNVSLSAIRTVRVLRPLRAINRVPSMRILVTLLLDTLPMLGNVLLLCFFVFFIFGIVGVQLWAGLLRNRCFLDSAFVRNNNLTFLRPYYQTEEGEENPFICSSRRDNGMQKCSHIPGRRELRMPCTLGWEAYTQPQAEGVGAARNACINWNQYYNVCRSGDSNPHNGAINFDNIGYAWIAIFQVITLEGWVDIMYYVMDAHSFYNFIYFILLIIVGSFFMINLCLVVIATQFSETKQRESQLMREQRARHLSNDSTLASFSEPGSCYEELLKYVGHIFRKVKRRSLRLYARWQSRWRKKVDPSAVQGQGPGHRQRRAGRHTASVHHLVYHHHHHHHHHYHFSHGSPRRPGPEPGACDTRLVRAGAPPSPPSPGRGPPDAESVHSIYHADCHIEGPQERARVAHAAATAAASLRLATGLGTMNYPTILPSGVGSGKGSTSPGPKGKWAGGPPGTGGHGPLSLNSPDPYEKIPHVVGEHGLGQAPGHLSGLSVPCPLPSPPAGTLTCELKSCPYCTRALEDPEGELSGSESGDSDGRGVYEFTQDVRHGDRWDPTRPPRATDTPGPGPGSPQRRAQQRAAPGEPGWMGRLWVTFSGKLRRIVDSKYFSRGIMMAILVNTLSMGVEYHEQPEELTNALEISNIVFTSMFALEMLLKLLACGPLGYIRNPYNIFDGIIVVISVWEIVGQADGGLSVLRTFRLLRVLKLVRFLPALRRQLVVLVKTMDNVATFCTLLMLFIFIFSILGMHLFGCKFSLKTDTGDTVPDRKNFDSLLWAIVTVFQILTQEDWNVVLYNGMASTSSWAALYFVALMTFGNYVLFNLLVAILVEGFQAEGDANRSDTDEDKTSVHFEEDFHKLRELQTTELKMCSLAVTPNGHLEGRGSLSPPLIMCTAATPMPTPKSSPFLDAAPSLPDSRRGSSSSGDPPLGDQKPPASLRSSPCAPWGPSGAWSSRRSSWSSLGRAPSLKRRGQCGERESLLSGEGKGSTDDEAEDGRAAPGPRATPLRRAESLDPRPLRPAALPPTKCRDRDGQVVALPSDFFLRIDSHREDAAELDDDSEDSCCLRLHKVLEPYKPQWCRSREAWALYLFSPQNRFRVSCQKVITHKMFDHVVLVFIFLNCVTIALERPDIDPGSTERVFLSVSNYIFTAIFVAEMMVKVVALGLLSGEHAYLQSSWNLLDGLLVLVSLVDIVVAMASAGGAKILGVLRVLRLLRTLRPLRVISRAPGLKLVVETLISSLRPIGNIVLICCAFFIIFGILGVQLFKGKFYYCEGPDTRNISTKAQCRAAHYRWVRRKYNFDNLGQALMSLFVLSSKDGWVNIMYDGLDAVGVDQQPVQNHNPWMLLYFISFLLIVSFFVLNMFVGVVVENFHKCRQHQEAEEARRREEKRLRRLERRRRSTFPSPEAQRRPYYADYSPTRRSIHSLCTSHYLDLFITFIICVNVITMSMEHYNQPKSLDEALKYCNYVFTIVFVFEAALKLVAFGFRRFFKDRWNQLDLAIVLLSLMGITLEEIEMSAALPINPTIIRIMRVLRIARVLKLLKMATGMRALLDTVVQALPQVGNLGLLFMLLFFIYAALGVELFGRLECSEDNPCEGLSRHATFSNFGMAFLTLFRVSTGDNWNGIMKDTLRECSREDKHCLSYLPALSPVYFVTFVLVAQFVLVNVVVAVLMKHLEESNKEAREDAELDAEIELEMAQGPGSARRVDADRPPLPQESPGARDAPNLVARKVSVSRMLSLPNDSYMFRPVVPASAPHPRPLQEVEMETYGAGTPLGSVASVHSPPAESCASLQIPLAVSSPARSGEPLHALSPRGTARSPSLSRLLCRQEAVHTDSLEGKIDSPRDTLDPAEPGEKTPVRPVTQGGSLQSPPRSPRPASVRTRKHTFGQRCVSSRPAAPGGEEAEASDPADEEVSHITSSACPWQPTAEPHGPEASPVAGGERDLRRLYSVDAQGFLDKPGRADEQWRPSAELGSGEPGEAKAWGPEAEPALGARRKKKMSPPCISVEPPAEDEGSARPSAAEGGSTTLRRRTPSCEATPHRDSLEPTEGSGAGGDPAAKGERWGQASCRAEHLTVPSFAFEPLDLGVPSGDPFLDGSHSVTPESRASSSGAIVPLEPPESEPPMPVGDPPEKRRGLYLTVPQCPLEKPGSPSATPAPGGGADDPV
List of CAv3.2 IC50 Ratio closed/inact. values.
RECORDED_METRIC: CAv3.2 IC50 Ratio closed/inact.

N[C@H]1CCCCC1C(=O)NC[C@H]1C[C@H](S(=O)(=O)c2cccc(OC(F)(F)F)c2)C1 (stereo partly shown) [Compound 709]
1
Cn1nc(C(F)(F)F)cc1C(=O)N[C@H]1C[C@@H](CC(C)(C)S(=O)(=O)c2cccc(C(F)(F)F)c2)C1 [Compound 738]
4.3
O=C(NC[C@H]1C[C@H](S(=O)(=O)c2cccc(OC(F)(F)F)c2)C1)c1ccc(OCC(F)(F)F)nc1 [Compound 699]
1
CS(=O)(=O)c1cc(Cl)ccc1C(=O)NC[C@H]1C[C@H](S(=O)(=O)c2cccc(OC(F)(F)F)c2)C1 [Compound 692]
3.2
O=S(=O)(c1cccc(OC(F)(F)F)c1)[C@H]1C[C@@H](CNc2ccnc(C(F)(F)F)n2)C1 [Compound 650]
0.8
CC(C)([C@H]1C[C@@H](NS(=O)(=O)c2ccc(F)c(C(F)(F)F)c2)C1)S(=O)(=O)c1cccc(C(F)(F)F)c1 [Compound 628]
1
CC(C)S(=O)(=O)c1cc(C(F)(F)F)cnc1C(=O)N[C@H]1C[C@@H](C(C)(C)S(=O)(=O)c2cc(F)cc(C(F)(F)F)c2)C1 [Compound 586]
1

====

target: UniProtKB O43497; assay: T-type calcium channel block, whole cell patch clamp, α1G; conditions: HEK cells stably expressing human α1G; mainly non-inactivated protocol; values above 10,000 nM represented as 10000
List of IC50 values.
RECORDED_METRIC: IC50 (µM)

CC(C)(CNC(=O)c1ccc(OCC(F)(F)F)nc1)S(=O)(=O)c1cccc(C(F)(F)F)c1
0.9
CC1(NC(=O)c2cc(C(F)(F)F)ccn2)CCC(S(=O)(=O)c2cccc(C(F)(F)F)c2)CC1 (centres unmarked)
4.2
COc1cc(F)cc(C(=O)N[C@H]2CC[C@](F)(S(=O)(=O)c3cccc(C(F)(F)F)c3)CC2)c1
7.49
O=C(CN[C@H]1CC[C@@H](S(=O)(=O)c2cccc(C(F)(F)F)c2)CC1)Nc1ccccn1
4.94
CC(C)(CNC(=O)c1ccc(C(F)(F)F)cc1S(C)(=O)=O)S(=O)(=O)c1cccc(C(F)(F)F)c1
0.56
CC(C)(CNC(=O)c1ccc(Cl)cc1Cl)S(=O)(=O)c1cccc(C(F)(F)F)c1
0.72
CN(C(=O)CNC1CCC(S(=O)(=O)c2cccc(C(F)(F)F)c2)CC1)C(C)(C)C (centres unmarked)
2.79
CC(C)(N)CN(C(=O)C(F)(F)F)[C@H]1CC[C@@](F)(S(=O)(=O)c2cccc(C(F)(F)F)c2)CC1
4.96
CS(=O)(=O)c1nc(C(F)(F)F)ccc1C(=O)NCC1CC(S(=O)(=O)c2cccc(C(F)(F)F)c2)C1 (centres unmarked)
6.48
CC(C)(C)NC(=O)CNCCC(C)(C)S(=O)(=O)c1cccc(C(F)(F)F)c1
0.61
O=C(N[C@H]1CC[C@@H](CS(=O)(=O)c2cccc(C(F)(F)F)c2)CC1)c1ccc(F)c(Cl)c1
8.23
CC1(S(=O)(=O)c2cccc(C(F)(F)F)c2)CCC(NC(=O)c2cc(C(F)(F)F)ccn2)CC1 (centres unmarked)
6.56
Cc1nn(C)c(C)c1S(=O)(=O)N[C@H]1CC[C@@](F)(S(=O)(=O)c2cccc(C(F)(F)F)c2)CC1
4.77
O=C1c2cc(C(F)(F)F)nn2CCN1[C@H]1CC[C@@](F)(S(=O)(=O)c2cc(F)cc(C(F)(F)F)c2)CC1
1.82
CC1(NC(=O)c2ccc(F)c(C(F)(F)F)c2)CCC(F)(S(=O)(=O)c2cccc(C(F)(F)F)c2)CC1 (centres unmarked)
2.23
CC1(C(=O)N[C@H]2CC[C@@](F)(S(=O)(=O)c3cccc(C(F)(F)F)c3)CC2)CC1
4.34
CC(C)(CCNCC(=O)NC1CCCCC1)S(=O)(=O)c1cccc(C(F)(F)F)c1
0.62
CC1(NC(=O)c2ccc(C(F)(F)F)cn2)CCC(S(=O)(=O)c2cccc(C(F)(F)F)c2)CC1 (centres unmarked)
2.96
Cn1cnc(S(=O)(=O)N[C@H]2CC[C@@](F)(S(=O)(=O)c3cccc(C(F)(F)F)c3)CC2)c1
2.83
O=C(N[C@H]1C[C@H](CS(=O)(=O)c2cccc(C(F)(F)F)c2)C1)c1ccc(C(F)(F)F)nc1
1.26
CC(C)S(=O)(=O)c1cc(C(F)(F)F)cnc1C(=O)N[C@H]1CC[C@H](CS(=O)(=O)c2cccc(C(F)(F)F)c2)CC1
2.19
O=C(N[C@H]1CC[C@@H](CS(=O)(=O)c2cccc(C(F)(F)F)c2)CC1)c1ccc(Cl)c(OC(F)(F)F)c1
1.88
CC1(CNC(=O)c2ccc(C(F)(F)F)nc2)CCC(S(=O)(=O)c2cccc(C(F)(F)F)c2)CC1 (centres unmarked)
0.94
COc1cc(F)cc(C(=O)N[C@H]2CC[C@@](F)(S(=O)(=O)c3cccc(C(F)(F)F)c3)CC2)c1
6.44
CC1(NC(=O)c2ncc(C(F)(F)F)cc2S(C)(=O)=O)CCC(S(=O)(=O)c2cccc(C(F)(F)F)c2)CC1 (centres unmarked)
1.14
CC1(NC(=O)c2ccc(C(F)(F)F)cc2S(C)(=O)=O)CCC(S(=O)(=O)c2cccc(C(F)(F)F)c2)CC1 (centres unmarked)
5.08
